# measurement notes: qHTS Assay for Lipid Storage Modulators in Drosophila S3 Cells;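 note: cells counted by Cell Tracker Red CMTPX staining in the red channel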
# condition summary: BODIPY lipid droplet fluorescence, 18-24 h, cells fed with added oleic acid; measured here: cell count max response
Among all 320,000 compounds or so, about 2,100 (0.66%) were called active. About 53% were inconclusive and are not listed. For the sample, actives were picked, then their nearest neighbours and some compounds at random.
Consider the following compounds; for each one, report its cell number change.
Answers are plain numbers, in %.

{"compound": "Cc1ccc(C(=O)N/N=C/c2ccc(-c3cccc(Cl)c3)o2)cn1", "cell number change / %": 8.19}

Please look at the items below and tell me cell number change for each one, in order.
1. CCOc1ccc(NC(=O)CCC(=O)n2nc(C)cc2C)cc1
2. CC(=O)NC12CC3CC(C1)CC(C(=O)Nc1nc4ccc(S(C)(=O)=O)cc4s1)(C3)C2
3. CN1CCN(c2nc(C(N)=O)cc(-c3ccccc3)n2)CC1
4. Cc1cc(=S)cc(C)n1CCCO
5. CCOc1ccc2oc(C(=O)NC(C)(C)CC)c(C)c2c1
6. CCc1nn(CC(=O)NCCCN(CC)CC)c(=O)c2cc3sc(C)cc3n12
7. Cc1cc(Nc2ccc(Br)cc2)nc(-c2ccccc2O)n1
8. Cc1cc(C)n(C(=O)CCCC(=O)n2nc(C)cc2C)n1

[1.15, -1.02, -10.6, -15.3, -22.3, 7.9, 5.51, -1.02]
